Taken from paper PMC7846937.

These records show Ki for UniProt:P00915.
OBSERVATION_TYPE: Ki (µM)

See these solved cases before continuing.
[
  {
    "COMPOUND": "CCc1cc(C)cc(C)[n+]1-c1cccc(S(N)(=O)=O)c1 [19f]",
    "TARGET_UNDER_TEST": "UniProt:P00915",
    "Ki (µM)": 0.0636
  },
  {
    "COMPOUND": "CCCCc1cc(-c2ccccc2)cc(CCCC)[n+]1-c1cccc(S(N)(=O)=O)c1 [19n]",
    "TARGET_UNDER_TEST": "UniProt:P00915",
    "Ki (µM)": 0.433
  }
]

I. Cc1cc(C)[n+](-c2cccc(S(N)(=O)=O)c2)c(C)c1 [19a]
II. Cc1cc(-c2ccccc2)[n+](-c2cccc(S(N)(=O)=O)c2)c(-c2ccccc2)c1 [19w]
INPUT: I need your help: which of the pair I , II has higher Ki? Label of pick, please.
OUTPUT: I
(I: 0.0821 µM, II: 0.0197 µM)

1. CCCc1cc(-c2ccccc2)cc(CCC)[n+]1-c1cccc(S(N)(=O)=O)c1 [19l]
2. Cc1c2cc(c(C)[n+]1-c1cccc(S(N)(=O)=O)c1)CCCCCCCCC2 [19u]
3. Cc1cc(C(C)C)[n+](-c2cccc(S(N)(=O)=O)c2)c(C(C)C)c1 [19d]
INPUT: Exam item: list the entries in increasing order of Ki. Write out the labels following the order that was asked for.
OUTPUT: 3, 1, 2

###

These records show Ki for hCA II (Homo sapiens).
OBSERVATION_TYPE: Ki (nM)

[
  {
    "COMPOUND": "CCCCc1cc(C)cc(C)[n+]1-c1cccc(S(N)(=O)=O)c1 [19i]",
    "OBSERVATION_TYPE": "Ki",
    "QUANTITATIVE_RESULT": 6.8
  },
  {
    "COMPOUND": "NS(=O)(=O)c1cccc(-[n+]2c(-c3ccccc3)cc(-c3ccccc3)cc2-c2ccccc2)c1 [19x]",
    "OBSERVATION_TYPE": "Ki",
    "QUANTITATIVE_RESULT": 13
  },
  {
    "COMPOUND": "CCc1cc(C)cc(C)[n+]1-c1cccc(S(N)(=O)=O)c1 [19f]",
    "OBSERVATION_TYPE": "Ki",
    "QUANTITATIVE_RESULT": 12.9
  },
  {
    "COMPOUND": "CCCc1cc(C)cc(CCC)[n+]1-c1cccc(S(N)(=O)=O)c1 [19c]",
    "OBSERVATION_TYPE": "Ki",
    "QUANTITATIVE_RESULT": 7.8
  }
]

a. CC(C)c1cc(-c2ccccc2)cc(C(C)C)[n+]1-c1cccc(S(N)(=O)=O)c1 [19m]
b. Cc1cc(-c2ccccc2)cc(-c2ccccc2)[n+]1-c1cccc(S(N)(=O)=O)c1 [19o]
c. CCCCc1cc(-c2ccccc2)cc(CCCC)[n+]1-c1cccc(S(N)(=O)=O)c1 [19n]
INPUT: Order field: Ki | Direction: descending (largest first) Write out the labels following the order that was asked for.
OUTPUT: c, a, b
(c: 49.3 nM, a: 9.3 nM, b: 3.4 nM)

###

These records show Ki for hCA I (Homo sapiens, UniProt P00915).
OBSERVATION_TYPE: Ki (nM)

See these solved cases before continuing.
[
  {
    "MOLECULE": "Cc1cc(C)[n+](-c2cccc(S(N)(=O)=O)c2)c(C)c1C [19t]",
    "TARGET_UNDER_TEST": "hCA I (Homo sapiens, UniProt P00915)",
    "Ki / nM": 54.9
  },
  {
    "MOLECULE": "CCc1cc(-c2ccccc2)cc(CC)[n+]1-c1cccc(S(N)(=O)=O)c1 [19k]",
    "TARGET_UNDER_TEST": "hCA I (Homo sapiens, UniProt P00915)",
    "Ki / nM": 71.6
  },
  {
    "MOLECULE": "Cc1cc(-c2ccccc2)cc(-c2ccccc2)[n+]1-c1cccc(S(N)(=O)=O)c1 [19o]",
    "TARGET_UNDER_TEST": "hCA I (Homo sapiens, UniProt P00915)",
    "Ki / nM": 8.5
  },
  {
    "MOLECULE": "CCCCc1cc(-c2ccccc2)cc(-c2ccccc2)[n+]1-c1cccc(S(N)(=O)=O)c1 [19s]",
    "TARGET_UNDER_TEST": "hCA I (Homo sapiens, UniProt P00915)",
    "Ki / nM": 137
  },
  {
    "MOLECULE": "Cc1cc(-c2ccccc2)cc(C)[n+]1-c1cccc(S(N)(=O)=O)c1 [19j]",
    "TARGET_UNDER_TEST": "hCA I (Homo sapiens, UniProt P00915)",
    "Ki / nM": 65.3
  }
]

1. CCc1cc(-c2ccccc2)cc(-c2ccccc2)[n+]1-c1cccc(S(N)(=O)=O)c1 [19p]
2. Cc1cc(C)[n+](-c2cccc(S(N)(=O)=O)c2)c(C(C)C)c1 [19h]
3. CC(C)c1cc(-c2ccccc2)cc(C(C)C)[n+]1-c1cccc(S(N)(=O)=O)c1 [19m]
INPUT: Exam item: list the entries in increasing order of Ki. Write out the labels following the order that was asked for.
OUTPUT: 1, 3, 2

###

These records show Ki for UniProt:P00918.
OBSERVATION_TYPE: Ki (nM)

See these solved cases before continuing.
[
  {
    "COMPOUND": "Cc1cc(-c2ccccc2)cc(C)[n+]1-c1cccc(S(N)(=O)=O)c1 [19j]",
    "OBSERVATION_TYPE": "Ki",
    "QUANTITATIVE_RESULT": 1.2
  },
  {
    "COMPOUND": "CCc1cc(-c2ccccc2)cc(-c2ccccc2)[n+]1-c1cccc(S(N)(=O)=O)c1 [19p]",
    "OBSERVATION_TYPE": "Ki",
    "QUANTITATIVE_RESULT": 4
  },
  {
    "COMPOUND": "Cc1cc(C(C)C)[n+](-c2cccc(S(N)(=O)=O)c2)c(C(C)C)c1 [19d]",
    "OBSERVATION_TYPE": "Ki",
    "QUANTITATIVE_RESULT": 9.6
  }
]

A. CCCCc1cc(-c2ccccc2)cc(-c2ccccc2)[n+]1-c1cccc(S(N)(=O)=O)c1 [19s]
B. CCc1cc(C)cc(CC)[n+]1-c1cccc(S(N)(=O)=O)c1 [19b]
INPUT: Compare reported Ki values for A and B . Which is lower? Label of pick, please.
OUTPUT: B

###

These records show Ki for hCA II (Homo sapiens, UniProt P00918).
OBSERVATION_TYPE: Ki (nM)

[
  {
    "COMPOUND": "CCCc1cc(C)cc(C)[n+]1-c1cccc(S(N)(=O)=O)c1 [19g]",
    "QUANTITATIVE_RESULT": 7.2
  },
  {
    "COMPOUND": "CCCCc1cc(C)cc(CCCC)[n+]1-c1cccc(S(N)(=O)=O)c1 [19e]",
    "QUANTITATIVE_RESULT": 58.1
  },
  {
    "COMPOUND": "Cc1cc(-c2ccccc2)[n+](-c2cccc(S(N)(=O)=O)c2)c(-c2ccccc2)c1 [19w]",
    "QUANTITATIVE_RESULT": 6.7
  }
]

a. Cc1cc(C)[n+](-c2cccc(S(N)(=O)=O)c2)c(-c2ccccc2)c1 [19v]
b. Cc1c2cc(c(C)[n+]1-c1cccc(S(N)(=O)=O)c1)CCCCCCCCC2 [19u]
c. CCCc1cc(-c2ccccc2)cc(CCC)[n+]1-c1cccc(S(N)(=O)=O)c1 [19l]
d. Cc1cc(C)[n+](-c2cccc(S(N)(=O)=O)c2)c(C)c1C [19t]
INPUT: Exam item: list the entries in increasing order of Ki. Write out the labels following the order that was asked for.
OUTPUT: d, a, c, b
(d: 2.6 nM, a: 8.8 nM, c: 18 nM, b: 39.8 nM)

###

pKi: −log10 of the molar value.
These records show pKi for hCA XII (Homo sapiens).
OBSERVATION_TYPE: pKi

a. Cc1cc(-c2ccccc2)cc(C)[n+]1-c1cccc(S(N)(=O)=O)c1 [19j]
b. Cc1cc(C)[n+](-c2cccc(S(N)(=O)=O)c2)c(C)c1C [19t]
c. NS(=O)(=O)c1cccc(-[n+]2c(-c3ccccc3)cc(-c3ccccc3)cc2-c2ccccc2)c1 [19x]
d. CCc1cc(-c2ccccc2)cc(-c2ccccc2)[n+]1-c1cccc(S(N)(=O)=O)c1 [19p]
e. Cc1cc(-c2ccccc2)[n+](-c2cccc(S(N)(=O)=O)c2)c(-c2ccccc2)c1 [19w]
INPUT: List the molecules shown above again, sorted by falling pKi values. Write out the labels following the order that was asked for.
OUTPUT: a, d, b, e, c
(a: 9.06, d: 8.85, b: 8.47, e: 8.06, c: 7.66)

A. Cc1cc(-c2ccccc2)cc(-c2ccccc2)[n+]1-c1cccc(S(N)(=O)=O)c1 [19o]
B. CCc1cc(C)cc(C)[n+]1-c1cccc(S(N)(=O)=O)c1 [19f]
INPUT: Compare reported pKi values for A and B . Which is lower? Label of pick, please.
OUTPUT: B

a. CC(C)c1cc(-c2ccccc2)cc(C(C)C)[n+]1-c1cccc(S(N)(=O)=O)c1 [19m]
b. CCCCc1cc(-c2ccccc2)cc(CCCC)[n+]1-c1cccc(S(N)(=O)=O)c1 [19n]
c. CCCc1cc(-c2ccccc2)cc(CCC)[n+]1-c1cccc(S(N)(=O)=O)c1 [19l]
INPUT: Exam item: list the entries in increasing order of pKi. Write out the labels following the order that was asked for.
OUTPUT: b, c, a
(b: 7.40, c: 7.67, a: 8.24)
